# target-of-assay: T1, recombinant dimeric human TIGIT-Fc (Acro Biosystems TIT-H5254) (human, UniProt Q495A1 22-141)
# T1 construct: Bought protein; also called hTIGIT-Fc; not shown: Fc part of the bought fusion protein
# T1 sequence: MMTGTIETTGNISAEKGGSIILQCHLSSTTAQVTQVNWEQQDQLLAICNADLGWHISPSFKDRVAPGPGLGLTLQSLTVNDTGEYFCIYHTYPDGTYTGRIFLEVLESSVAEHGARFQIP
# procedure-text: BLI (ForteBio Octet RED384), IgG on AHQ sensor, 100 nM antigen, 1:1 model
Each entry below lists one item and its recorded pKd value.
For clarity, pKd is expressed as the negative log10 of concentration in mol/L.

QUERY: Return reported pKd; argument: Clone 3 (antibody, V domains shown, Fully human IgG produced in yeast) VH: EVQLVESGGGLVQPGGSLRLSCAASGFTFSDHYMDWVRQAPGKGLEWVGRTRNKANSYTTEYAASVKGRFTISRDDSKNSLYLQMNSLKTEDTAVYYCARGQYYYGSSSRGYYYMDVWGQGTTVTVSS VL: EIVLTQSPGTLSLSPGERATLSCRASQSVRSSYLAWYQQKPGQAPRLLIYGASSRATGIPDRFSGSGSGTDFTLTISRLEPEDFAVYYCQQVGPPLTFGGGTKVEIK
RESULT: 8.56

QUERY: Look up pKd for this binder: Clone 27 (antibody, V domains shown, Fully human IgG produced in yeast) VH: QVQLVQSGAEVKKPGASVKVSCKASGYTFTSYAISWVRQAPGQGLEWMGWISAYNGNTNYAQKLQGRVTMTTDTSTSTAYMELRSLRSDDTAVYYCARDLSSFWSGDVLGAFDIWGQGTMVTVSS VL: EIVMTQSPATLSVSPGERATLSCRASQSVSSNLAWYQQKPGQAPRLLIYGASTRATGIPARFSGSGSGTEFTLTISSLQSEDFAVYYCQQHANHITFGGGTKVEIK
RESULT: 9.25

QUERY: Tell me the measured pKd of Clone 54 (antibody, V domains shown, Fully human IgG produced in yeast) VH: QVQLVQSGAEVKKPGASVKVSCKASGYTFTSYYMHWVRQAPGQGLEWMGIINPSGGSTSYAQKFQGRVTMTRDTSTSTVYMELSSLRSEDTAVYYCARASDSYGVGLYYGMDVWGQGTTVTVSS VL: EIVLTQSPGTLSLSPGERATLSCRASQSVRSSYLAWYQQKPGQAPRLLIYGASSRATGIPDRFSGSGSGTDFTLTISRLEPEDFAVYYCQQYYVSPLTFGGGTKVEIK , please.
RESULT: 9.16

QUERY: Request the reported pKd associated with Clone 22 (antibody, V domains shown, Fully human IgG produced in yeast) VH: QVQLQESGPGLVKPSETLSLTCAVSGYSISSGYYWAWIRQPPGKGLEWIGSIYHSGSTYYNPSLKSRVTISVDTSKNQFSLKLSSVTAADTAVYYCARQGYYYGSSGSVDFDLWGRGTLVTVSS VL: DIQMTQSPSSVSASVGDRVTITCRASQGISSWLAWYQQKPGKAPKLLIYAASNLQSGVPSRFSGSGSGTDFTLTISSLQPEDFATYYCQQANSLPPWTFGGGTKVEIK
RESULT: 9.10

QUERY: What does the data say about its pKd? Entry: Clone 18 (antibody, V domains shown, Fully human IgG produced in yeast) VH: QVQLVQSGAEVKKPGASVKVSCKASGYTFTSYYMSWVRQAPGQGLEWMGIINPSGGSTSYAQKFQGRVTMTRDTSTSTVYMELSSLRSEDTAVYYCARVRYGYADGMDVWGQGTTVTVSS VL: DIQMTQSPSSLSASVGDRVTITCRASQSISSYLNWYQQKPGKAPKLLIYGASSLQSGVPSRFSGSGSGTDFTLTISSLQPEDFATYYCQQVYHLPFTFGGGTKVEIK
RESULT: 8.62
